// merged dataset of IC50 values, system = human DGAT2 (hDGAT2) (Homo sapiens), multiple refs
Response body: numeric value in nM, unit text excluded.

[
  {
    "compound": "O=C(NC1(CO)CCCC1)c1ccc2c(-c3ccccc3Cl)nn(-c3ccc(F)cc3)c2c1",
    "IC50, nM": 11
  },
  {
    "compound": "Cc1c(C(=O)NC2CCS(=O)(=O)C(C)(C)C2)nc2ccc(Oc3ncc(F)cc3OCC(F)(F)F)cn12 (stereo not shown)",
    "IC50, nM": 193
  },
  {
    "compound": "CC1(NC(=O)c2ccc3c(-c4cc(C(N)=O)ccc4Cl)nn(-c4ccc(F)cc4)c3c2)CCS(=O)(=O)C1 (single isomer, unassigned)",
    "IC50, nM": 132
  },
  {
    "compound": "CCOc1cccnc1Oc1ccc2nc(C(=O)NC3(C)CC(F)(F)C3)cn2c1",
    "IC50, nM": 31
  },
  {
    "compound": "C[C@]1(NC(=O)c2cnc3c(-c4cccc(OC(F)F)c4)nn(-c4ncc(F)cn4)c3c2)CCS(=O)(=O)C1",
    "IC50, nM": 57
  }
]

Data request, read-out IC50, for COc1c(C(=O)NC2(C)CS(=O)(=O)C2)nc2ccc(Oc3ncc(F)cc3OCC(F)(F)F)cn12
62

Data request, read-out IC50, for CC1(NC(=O)c2cc3cc(Oc4ncccc4OCC(F)(F)F)ccn3n2)CCS(=O)(=O)CC1
9.7

---

// merged dataset of IC50 values, system = human DGAT2 (hDGAT2) (Homo sapiens), multiple refs
Response body: numeric value in nM, unit text excluded.

Use the examples below as a reference point.
[
  {
    "molecule": "CCOc1cccnc1Oc1ccc2nc(C(=O)N[C@H]3CCOC3)cn2c1",
    "IC50 / nM": 814
  },
  {
    "molecule": "CC(C)(C)NC(=O)N1CCc2c(-c3ccnc4[nH]ccc34)ccc(CNC(=O)[C@@H]3C[C@H]3c3ccccc3)c2C1 (relative stereo)",
    "IC50 / nM": 1460
  },
  {
    "molecule": "CC(C)(C)NC(=O)N1CCc2c(-c3ccc4ncnn4c3)ccc(CNC(=O)[C@@H]3C[C@H]3c3ccccc3)c2C1 (relative stereo)",
    "IC50 / nM": 4640
  },
  {
    "molecule": "O=C(N[C@H](CO)c1ccccc1)c1ccc2c(-c3ccccc3Cl)nn(-c3ccc(F)cc3)c2c1",
    "IC50 / nM": 36
  },
  {
    "molecule": "CC1(NC(=O)c2cn3cc(Oc4ncc(Cl)cc4OCC(F)(F)F)ccc3n2)CS(=O)(=O)C1",
    "IC50 / nM": 5
  },
  {
    "molecule": "COc1cccc(-c2ccc(CNC(=O)[C@@H]3C[C@H]3c3ccccc3)c3c2CCN(C(=O)C(CO)C(F)(F)F)C3)c1 (stereo partly shown)",
    "IC50 / nM": 1310
  }
]

Now for another entry.
IC50 of O=C(NCCn1cnnc1)c1ccc2c(-c3ccccc3Cl)nn(-c3ccc(F)cc3)c2c1 on human DGAT2 (hDGAT2) (Homo sapiens)?
96

---

// merged dataset of pIC50 values, system = human DGAT2 (hDGAT2) (Homo sapiens), multiple refs
pIC50 here: minus log base 10 of the concentration, concentration in moles per litre.

Use the examples below as a reference point.
[
  {
    "compound": "N#Cc1ccc(Cl)c(-c2nn(-c3ccc(F)cc3)c3cc(C(=O)NC4CCS(=O)(=O)C4)ccc23)c1 (single isomer, unassigned)",
    "measured": 8.38
  },
  {
    "compound": "COc1cccc(-c2ccc(CNC(=O)C3CC3c3ccccc3)c3c2CCN(C(=O)CC(C)(C)C)C3)c1 (stereo not shown)",
    "measured": 6.15
  },
  {
    "compound": "CCOc1cccnc1Oc1ccc2nc(C(=O)N[C@H]3CC[C@](OC)(C(F)(F)F)CC3)cn2c1",
    "measured": 8.00
  },
  {
    "compound": "Cc1c(C(=O)NC2(C)CS(=O)(=O)C2)nc2ccc(Oc3ncc(F)cc3OCC(F)F)cn12",
    "measured": 8.17
  },
  {
    "compound": "COc1cccc(-c2ccc(CNC(=O)[C@H]3C[C@@H]3c3ccccc3)c3c2CCN(c2nccc(C(F)(F)F)n2)C3)c1 (relative stereo)",
    "measured": 5.39
  },
  {
    "compound": "Cc1c(C(=O)NC2(C)CN(C(=O)C(F)(F)F)C2)nc2ccc(Oc3ncc(F)cc3OCC(F)(F)F)cn12",
    "measured": 7.70
  }
]

pIC50 of CCC1(NC(=O)c2nc3ccc(Oc4ncc(F)cc4OCC(F)F)cn3c2C)CS(=O)(=O)C1 on human DGAT2 (hDGAT2) (Homo sapiens)?
7.13

---

// merged dataset of log10(IC50) values, system = human DGAT2 (hDGAT2) (Homo sapiens), multiple refs
Remember, log10 of IC50, in nM.

Use the examples below as a reference point.
[
  {
    "compound": "CC(C)[C@@H](CO)NC(=O)c1ccc2c(-c3cc(C#N)ccc3Cl)nn(-c3ccc(F)cc3)c2c1",
    "measured": 0.58
  },
  {
    "compound": "Cc1c(C(=O)NC2(C)CCS(=O)(=O)CC2)nc2cc(C#N)c(Oc3ncc(Cl)cc3OCC(F)(F)F)cn12",
    "measured": 1.40
  },
  {
    "compound": "CC(C)n1nc(-c2cc(OC(F)F)ncc2F)c2nnc(C(=O)NC3(C)CCS(=O)(=O)CC3)cc21",
    "measured": 2.16
  }
]

log10(IC50) of CN1CCC(NC(=O)c2ccc3c(-c4ccccc4Cl)nn(-c4ccc(F)cc4)c3c2)C1=O (racemic) on human DGAT2 (hDGAT2) (Homo sapiens)?
2.84

log10(IC50) of COc1cccc(-c2ccc(CNC(=O)[C@@H]3C[C@H]3c3ccccc3)c3c2CCN(C(=O)C(C)(C)C)C3)c1 (relative stereo) on human DGAT2 (hDGAT2) (Homo sapiens)?
2.95

log10(IC50) of COc1cccc(-c2ccc(CNC(=O)C3CC3c3cccnc3)c3c2CCN(C(=O)NC(C)(C)C)C3)c1 (stereo not shown) on human DGAT2 (hDGAT2) (Homo sapiens)?
0.79

---

pIC50: −log10 of the molar value.
// merged dataset of pIC50 values, system = human DGAT2 (hDGAT2) (Homo sapiens, UniProt Q96PD7), multiple refs
Sequence (Q96PD7 whole entry): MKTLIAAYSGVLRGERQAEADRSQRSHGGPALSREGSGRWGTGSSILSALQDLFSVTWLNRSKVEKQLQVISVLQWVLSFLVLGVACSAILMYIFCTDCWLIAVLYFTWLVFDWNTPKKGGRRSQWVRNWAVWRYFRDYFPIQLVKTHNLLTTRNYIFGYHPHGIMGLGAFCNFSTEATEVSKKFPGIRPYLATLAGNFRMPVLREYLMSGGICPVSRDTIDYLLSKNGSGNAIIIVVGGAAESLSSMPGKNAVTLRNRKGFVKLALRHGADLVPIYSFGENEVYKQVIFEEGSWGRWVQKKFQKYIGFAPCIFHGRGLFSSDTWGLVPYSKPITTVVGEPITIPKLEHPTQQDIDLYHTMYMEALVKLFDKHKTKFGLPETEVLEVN
Each entry falls in a class defined on pIC50; the bands are low bracket (below 7), middle bracket (7 to below 8), high bracket (8 or more)

[
  {
    "compound": "COC(=O)c1cccc(-c2ccc(CNC(=O)C3CC3c3ccccc3)c3c2CCN(CCC(F)(F)F)C3)c1 (stereo not shown)",
    "assigned.label": "low bracket"
  },
  {
    "compound": "COC(=O)C1CCN(C(=O)N2CCc3c(-c4cccc(OC)c4)ccc(CNC(=O)[C@@H]4C[C@H]4c4ccccc4)c3C2)CC1",
    "assigned.label": "low bracket"
  },
  {
    "compound": "CC1(NC(=O)c2ccc3c(-c4cccc(C5CC5)c4)nn(-c4ccc(F)cn4)c3c2)CCS(=O)(=O)C1 (single isomer, unassigned)",
    "assigned.label": "high bracket"
  },
  {
    "compound": "CC(C)(C)NC(=O)N1CCc2c(-c3cccc(C(F)(F)F)c3)ccc(C(=O)NCCN3CCCc4ccccc43)c2C1",
    "assigned.label": "low bracket"
  },
  {
    "compound": "CC(C)(C)NC(=O)N1CCc2c(-c3cccc(C(F)(F)F)c3)ccc(C(=O)Nc3nonc3-c3nc4ccccc4[nH]3)c2C1",
    "assigned.label": "low bracket"
  },
  {
    "compound": "CC(C)n1nc(-c2cncc(OC3CC3)c2)c2ncc(C(=O)NC3(C)CS(=O)(=O)C3)cc21",
    "assigned.label": "middle bracket"
  },
  {
    "compound": "CCOc1cccnc1Oc1cncc(-c2ncc(C(=O)NC3CNCC(F)(F)C3)cn2)c1 (stereo not shown)",
    "assigned.label": "low bracket"
  },
  {
    "compound": "CC1(NC(=O)c2nn3ccc(Oc4ncccc4OCC(F)(F)F)cc3c2F)CS(=O)(=O)C1",
    "assigned.label": "low bracket"
  }
]

Class (by measured pIC50) for O=C(NCc1cnoc1)c1ccc2c(-c3ccccc3Cl)nn(-c3ccc(F)cc3)c2c1
low bracket

Class (by measured pIC50) for Cc1c(Oc2ncc(F)cc2OCC(C)(F)F)ccc2nc(C(=O)NC3(C)CCS(=O)(=O)CC3)nn12
low bracket

Class (by measured pIC50) for Cc1nnc(-c2cccc(-c3nn(-c4ccc(F)cc4)c4cc(C(=O)NC5(C)CCS(=O)(=O)C5)ccc34)c2)o1 (racemic)
middle bracket

Class (by measured pIC50) for COC(=O)c1cccc(-c2ccc(CNC(=O)C3CC3c3ccccc3)c3c2CCN(C(=O)C2CC2C)C3)c1 (stereo not shown)
low bracket

Class (by measured pIC50) for Cc1cc2nc(C(=O)NC3(C)CCS(=O)(=O)CC3)cn2cc1Oc1nccnc1OCC(F)(F)F
middle bracket

Class (by measured pIC50) for CC1(NC(=O)c2ccc3c(-c4cncc(OC(F)F)c4)cn(-c4ccc(F)cc4)c3c2)CCS(=O)(=O)C1 (racemic)
high bracket

Class (by measured pIC50) for Cc1cc(C(F)(F)F)nc(CCNC(=O)c2ccc(-c3cccc(C(F)(F)F)c3)c3c2CN(C(=O)NC(C)(C)C)CC3)n1
low bracket

Class (by measured pIC50) for Cc1noc([C@@H]2C[C@H]2C(=O)NCc2ccc(-c3cccc(OC(F)(F)F)c3)c3c2CN(Cc2scnc2C)CC3)n1 (relative stereo)
low bracket

Class (by measured pIC50) for Cc1c(Oc2ncc(Cl)cc2OCC(F)(F)F)ccc2nc(C(=O)NC3(C)CCS(=O)(=O)CC3)c(F)n12
high bracket

Class (by measured pIC50) for CC1(NC(=O)c2cn3cc(Oc4ncc(Cl)cc4OCC(F)F)ccc3n2)CS(=O)(=O)C1
middle bracket
